Measured relative viability by item
# Tested on: NCI-H2228
# protocol description: relative viability (nuclei count vs DMSO), 5 days (fraction); higher = more cells survive
# test context: first compound 0.8 µM

# molecule, relative viability
records = [
    ("Nc1cccc2c1CN(C1CCC(=O)NC1=O)C2=O (stereo not given) [Lenalidomide] + C[C@@H](Oc1cc(-c2cnn(C3CCNCC3)c2)cnc1N)c1c(Cl)ccc(F)c1Cl [Crizotinib] (partner 1 µM)", 0.362),
    ("Nc1cccc2c1CN(C1CCC(=O)NC1=O)C2=O (stereo not given) [Lenalidomide] + N=C(N)NC(=N)NCCc1ccccc1 [Phenformin] (partner 250 µM)", 0.327),
    ("Nc1cccc2c1CN(C1CCC(=O)NC1=O)C2=O (stereo not given) [Lenalidomide] + Cc1cc(Nc2cc(N3CCN(C)CC3)nc(Sc3ccc(NC(=O)C4CC4)cc3)n2)n[nH]1 [Tozasertib] (partner 0.1 µM)", 0.338),
    ("Nc1cccc2c1CN(C1CCC(=O)NC1=O)C2=O (stereo not given) [Lenalidomide] + COc1cccc2cc(-c3nc([C@H]4CC[C@H](C(=O)O)CC4)n4ncnc(N)c34)[nH]c12 [OSI-027] (partner 0.5 µM)", 0.641),
    ("Nc1cccc2c1CN(C1CCC(=O)NC1=O)C2=O (stereo not given) [Lenalidomide] + CC(C)C[C@H](NC(=O)[C@H](Cc1ccccc1)NC(=O)c1cnccn1)B(O)O [Bortezomib] (partner 0.002 µM)", 0.986),
]

----------
# Test system: IA-LM
# protocol description: relative viability (nuclei count vs DMSO), 5 days (fraction); higher = more cells survive
# test context: first compound 2 µM
Measured relative viability by item

# compound, relative viability
data = [
    ("CN1CCN(CCOc2cc(OC3CCOCC3)c3c(Nc4c(Cl)ccc5c4OCO5)ncnc3c2)CC1 [Saracatinib] + CC(C)C[C@H](NC(=O)[C@H](Cc1ccccc1)NC(=O)c1cnccn1)B(O)O [Bortezomib] (partner 0.002 µM)", 0.909),
    ("Cc1csc(=NC2CCCCC2)n1/N=C/c1ccc(O)c(O)c1O [MIM1] + Cc1nc(NC(=O)N2CCC[C@H]2C(N)=O)sc1-c1ccnc(C(C)(C)C(F)(F)F)c1 [Alpelisib] (partner 2 µM)", 0.644),
    ("CN1CCN(CCOc2cc(OC3CCOCC3)c3c(Nc4c(Cl)ccc5c4OCO5)ncnc3c2)CC1 [Saracatinib] + C[C@]1(O)C[C@@H](c2nc(-c3ccc4ccc(-c5ccccc5)nc4c3)c3c(N)nccn32)C1 [Linsitinib] (partner 1 µM)", 0.815),
    ("Cc1csc(=NC2CCCCC2)n1/N=C/c1ccc(O)c(O)c1O [MIM1] + O=C(c1cc(Cc2n[nH]c(=O)c3ccccc23)ccc1F)N1CCN(C(=O)C2CC2)CC1 [Olaparib] (partner 8 µM)", 0.829),
    ("CN1CCN(CCOc2cc(OC3CCOCC3)c3c(Nc4c(Cl)ccc5c4OCO5)ncnc3c2)CC1 [Saracatinib] + CC1(C)CCC(c2ccc(Cl)cc2)=C(CN2CCN(c3ccc(C(=O)NS(=O)(=O)c4ccc(N[C@H](CCN5CCOCC5)CSc5ccccc5)c(S(=O)(=O)C(F)(F)F)c4)cc3)CC2)C1 [Navitoclax] (partner 0.5 µM)", 1),
    ("Cc1csc(=NC2CCCCC2)n1/N=C/c1ccc(O)c(O)c1O [MIM1] + CC(C)C[C@H](NC(=O)[C@H](Cc1ccccc1)NC(=O)c1cnccn1)B(O)O [Bortezomib] (partner 0.002 µM)", 0.783),
]

----------
# Tested on: NCI-H1915
# protocol description: relative viability (nuclei count vs DMSO), 5 days (fraction); higher = more cells survive
# test context: first compound 0.6325 µM

# compound, system under test, relative viability
records = [
    ("Cc1csc(=NC2CCCCC2)n1/N=C/c1ccc(O)c(O)c1O [MIM1] + C[C@@H](Oc1cc(-c2cnn(C3CCNCC3)c2)cnc1N)c1c(Cl)ccc(F)c1Cl [Crizotinib] (partner 1 µM)", "NCI-H1915", 0.875),
    ("Cc1csc(=NC2CCCCC2)n1/N=C/c1ccc(O)c(O)c1O [MIM1] + O=C(CCCCCCC(=O)Nc1ccccc1)NO [Vorinostat] (partner 1 µM)", "NCI-H1915", 0.429),
    ("CN1CCN(CCOc2cc(OC3CCOCC3)c3c(Nc4c(Cl)ccc5c4OCO5)ncnc3c2)CC1 [Saracatinib] + Cc1nc(Nc2ncc(C(=O)Nc3c(C)cccc3Cl)s2)cc(N2CCN(CCO)CC2)n1 [Dasatinib] (partner 0.075 µM)", "NCI-H1915", 0.282),
    ("Cc1csc(=NC2CCCCC2)n1/N=C/c1ccc(O)c(O)c1O [MIM1] + N=C(N)NC(=N)NCCc1ccccc1 [Phenformin] (partner 250 µM)", "NCI-H1915", 0.306),
    ("Cc1csc(=NC2CCCCC2)n1/N=C/c1ccc(O)c(O)c1O [MIM1] + CC(C)C[C@H](NC(=O)[C@H](Cc1ccccc1)NC(=O)c1cnccn1)B(O)O [Bortezomib] (partner 0.002 µM)", "NCI-H1915", 0.857),
]

----------
# Tested on: NCI-H1563
# protocol description: relative viability (nuclei count vs DMSO), 5 days (fraction); higher = more cells survive
# test context: first compound 0.6325 µM

# compound, system under test, relative viability
measured = [
    ("Cc1csc(=NC2CCCCC2)n1/N=C/c1ccc(O)c(O)c1O [MIM1] + CCNC(=O)c1noc(-c2cc(C(C)C)c(O)cc2O)c1-c1ccc(CN2CCOCC2)cc1 [Luminespib] (partner 0.01 µM)", "NCI-H1563", 0.607),
    ("CN1CCN(CCOc2cc(OC3CCOCC3)c3c(Nc4c(Cl)ccc5c4OCO5)ncnc3c2)CC1 [Saracatinib] + C[C@]1(O)C[C@@H](c2nc(-c3ccc4ccc(-c5ccccc5)nc4c3)c3c(N)nccn32)C1 [Linsitinib] (partner 1 µM)", "NCI-H1563", 1.05),
    ("Cc1csc(=NC2CCCCC2)n1/N=C/c1ccc(O)c(O)c1O [MIM1] + Cc1nc(Nc2ncc(C(=O)Nc3c(C)cccc3Cl)s2)cc(N2CCN(CCO)CC2)n1 [Dasatinib] (partner 0.075 µM)", "NCI-H1563", 0.508),
    ("CN1CCN(CCOc2cc(OC3CCOCC3)c3c(Nc4c(Cl)ccc5c4OCO5)ncnc3c2)CC1 [Saracatinib] + Cc1nc(NC(=O)N2CCC[C@H]2C(N)=O)sc1-c1ccnc(C(C)(C)C(F)(F)F)c1 [Alpelisib] (partner 2 µM)", "NCI-H1563", 0.725),
    ("CN1CCN(CCOc2cc(OC3CCOCC3)c3c(Nc4c(Cl)ccc5c4OCO5)ncnc3c2)CC1 [Saracatinib] + COc1cc2c(Oc3ccc(NC(=O)C4(C(=O)Nc5ccc(F)cc5)CC4)cc3F)ccnc2cc1OCCCN1CCOCC1 [Foretinib] (partner 0.25 µM)", "NCI-H1563", 0.76),
]

----------
Measured relative viability by item
# Test system: NCI-H596
# protocol description: relative viability (nuclei count vs DMSO), 5 days (fraction); higher = more cells survive
# test context: first compound 0.01 µM

# compound, relative viability
rows = [
    ("Cc1cn(-c2cc(NC(=O)c3ccc(C)c(Nc4nccc(-c5cccnc5)n4)c3)cc(C(F)(F)F)c2)cn1 [Nilotinib] + CCNC(=O)c1noc(-c2cc(C(C)C)c(O)cc2O)c1-c1ccc(CN2CCOCC2)cc1 [Luminespib] (partner 0.01 µM)", 1.01),
    ("Cc1cn(-c2cc(NC(=O)c3ccc(C)c(Nc4nccc(-c5cccnc5)n4)c3)cc(C(F)(F)F)c2)cn1 [Nilotinib] + CC1(C)CCC(c2ccc(Cl)cc2)=C(CN2CCN(c3ccc(C(=O)NS(=O)(=O)c4ccc(N[C@H](CCN5CCOCC5)CSc5ccccc5)c(S(=O)(=O)C(F)(F)F)c4)cc3)CC2)C1 [Navitoclax] (partner 0.5 µM)", 1.13),
    ("Cc1cn(-c2cc(NC(=O)c3ccc(C)c(Nc4nccc(-c5cccnc5)n4)c3)cc(C(F)(F)F)c2)cn1 [Nilotinib] + Cc1nc(Nc2ncc(C(=O)Nc3c(C)cccc3Cl)s2)cc(N2CCN(CCO)CC2)n1 [Dasatinib] (partner 0.075 µM)", 0.507),
    ("Cc1cn(-c2cc(NC(=O)c3ccc(C)c(Nc4nccc(-c5cccnc5)n4)c3)cc(C(F)(F)F)c2)cn1 [Nilotinib] + O=C(c1cc(Cc2n[nH]c(=O)c3ccccc23)ccc1F)N1CCN(C(=O)C2CC2)CC1 [Olaparib] (partner 8 µM)", 0.711),
    ("Cc1cn(-c2cc(NC(=O)c3ccc(C)c(Nc4nccc(-c5cccnc5)n4)c3)cc(C(F)(F)F)c2)cn1 [Nilotinib] + Cc1nc(NC(=O)N2CCC[C@H]2C(N)=O)sc1-c1ccnc(C(C)(C)C(F)(F)F)c1 [Alpelisib] (partner 2 µM)", 0.481),
]
